Provenance of the data: patent US9371374

Molecular target: biotinylated HCV core peptide 141-161 (Peptide 2) (HCV-1)
Assay: EIA, captured mAb
MEASUREMENT NAME: Reactivity (OD492) (OD)
Respond numerically; units are OD and should not be typed.

For the binder HCV 208A-830 (antibody, V domains shown) VH: EVRLQQPGPEVEKPGASVKISCKTSGYTFTEYAIHWVKQSHGESLEWIGGINPSNGDPIYNQIFKDKATLTVDRSSNTAYMGLRSLTVGDSGVYFCVRRQLDYFDFWGQGASLTVSS VL: DIVLTQSPASLAVSLGQRATISCRSSQSVSTSRYSYLHWYQQKPGQPPKLLIKYASNLESGVPARFSGSGSGTDFTLNIHPVGEEDPATYYCQHSWEFPFTFGSGTKLEIKR , what Reactivity (OD492) is on record?
2.88

Which measured Reactivity (OD492) value corresponds to HCV 208B-353 (antibody, V domains shown) VH: EVQLVESGGDLVKPGGSLKLSCAASGFTFNHYGMSWVRQPPDKRLEWVATISSGGGYTYYPDSVKGRFTISRDNAKDTLSLQMSSLRSGDTAVYYCASLYGSLFAYWGQGTLVTVSA VL: DIVMTQSQKFMSTTVGDRVRVTCKASQNVGTAVAWYQQKPGQSPKLLIYSASNRYTGVPDRFTGSGSGTDFTLTITNMQSEDLADYFCQQYSTYPLTFGSGAKLEIKR ?
2.47

Give its Reactivity (OD492) value. Item: HCV 208A-222 (antibody, V domains shown) VH: EVQLQQSGPELEKPGASVRISCKTSGYTFTEYAMHWVKQSHGKSLEWIGGINPNNGNAIYNQIFKDKATLTVDRSSSTAYMGLRSLTFGDSGVYFCVRRQLDYFDYWGQGASLTVSS VL: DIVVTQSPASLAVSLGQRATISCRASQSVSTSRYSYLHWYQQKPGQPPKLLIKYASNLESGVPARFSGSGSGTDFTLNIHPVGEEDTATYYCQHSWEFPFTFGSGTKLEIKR
2.7
